Molecular target: WEE1 (Homo sapiens, UniProt P30291+Q96SW2)
Construct: C-terminal ePL-tagged (DiscoverX, Fremont, CA) full-length WEE1 expression construct; expressed in transfected cells; host or cells: LentiX-HEK293T (Invitrogen), lentiviral transduction; co-expressing GSPT1-GN (G576N, lacking the first 158 amino acids)
Assay: WEE1-ePL degradation assay (LentiX-WEE1-ePL-GSPT1-ND cells, InCELL Hunter luminescence, 4 h)
Format: cell-based
Conditions: 293T-LentiX WEE1-ePL cells, lower limit of the fit (0 = luciferase inhibitor, Ymax = DMSO control)
Cut-off 30 on 293T-LentiX WEE1-ePL Degradation 4 hr (Ymin), inclusive. At or above means y; below means n.

Past entries and their recorded results:
Compound	Assigned Class
O=C1CCC(N2Cc3cc(O[C@H]4CCN(Cc5ccc6nc([C@@H]7CC[C@H](O)C7)ccc6c5)C4)ccc3C2=O)C(=O)N1 (stereo partly shown)	y
CC(C)OCc1ccc2cc(CN3CC[C@H](Oc4ccc5c(c4)CN(C4CCC(=O)NC4=O)C5=O)C3)ccc2n1 (stereo partly shown)	y
CN(C)c1ccc2cc(CN3CC[C@H](Oc4ccc5c(c4)CN(C4CCC(=O)NC4=O)C5=O)C3)ccc2n1 (stereo partly shown)	n
N#Cc1ccc(CN2CC[C@H](Oc3ccc4c(c3)CN(C3CCC(=O)NC3=O)C4=O)C2)nc1 (stereo partly shown)	y
O=C1CC[C@H](N2Cc3cc(O[C@H]4CCN(Cc5ccc6nc([C@H]7CCOC7)ccc6c5)C4)ccc3C2=O)C(=O)N1	y
N#Cc1ccc2cc(CN3CC[C@H](Oc4ccc5c(c4)CN(C4CCC(=O)NC4=O)C5=O)C3)ncc2c1 (stereo partly shown)	n
O=C1CCC(N2Cc3cc(O[C@H]4CCN(Cc5ccc6nc(OC7CCOCC7)ccc6c5)C4)ccc3C2=O)C(=O)N1 (stereo partly shown)	y
O=C1CCC(N2Cc3cc(O[C@H]4CCN(Cc5ccc6nc([C@@H]7CCCOC7)ncc6c5)C4)ccc3C2=O)C(=O)N1 (stereo partly shown)	y
CN1CCN(c2ccc3cc(CN4CC[C@H](Oc5ccc6c(c5)CN(C5CCC(=O)NC5=O)C6=O)C4)ccc3n2)CC1 (stereo partly shown)	y
O=C1CCC(N2Cc3cc(O[C@H]4CCN(Cc5ccc6nc([C@H]7CCC[C@@H](O)C7)ccc6c5)C4)ccc3C2=O)C(=O)N1 (stereo partly shown)	y

Q: Decide: 293T-LentiX WEE1-ePL Degradation 4 hr (Ymin) of O=C1CC[C@H](N2Cc3cc(O[C@H]4CCN(Cc5ccc6nc([C@H]7CCOC7)ncc6c5)C4)ccc3C2=O)C(=O)N1 >= 30?
Ans: y

Q: Decide: 293T-LentiX WEE1-ePL Degradation 4 hr (Ymin) of O=C1CCC(N2Cc3cc(O[C@H]4CCN(Cc5ccc6nc(N7CCCC78CCOCC8)ccc6c5)C4)ccc3C2=O)C(=O)N1 (stereo partly shown) >= 30?
Ans: y
